Data credit: ChEMBL document CHEMBL1133087

System: Mus musculus
Experiment: Biodistribution was studied by injecting intravenously into C57B1/6 mice bearing subcutaneously transplanted B16 heart after 1 hr.
Assay type: ADME, organism-based
Settings: in vivo, iv
This listing pairs molecules with measured ID/g.
Just the number please, in %, no unit attached.

Illustrative cases are given below, each with its answer.
stdin: Lab note: need ID/g with Mus musculus for entry CCN(CC)CCNC(=O)c1ccc(OC)c(I)c1 , please look it up.
stdout: 0.25

stdin: Lab note: need ID/g with Mus musculus for entry CCN(CC)CCNC(=O)c1cc(OC)ccc1I , please look it up.
stdout: 0.63

stdin: Lab note: need ID/g with Mus musculus for entry CCN(CC)CCNC(=O)c1ccc(NC(C)=O)c(I)c1 , please look it up.
stdout: 3.19

stdin: Lab note: need ID/g with Mus musculus for entry CCN(CC)CCNC(=O)c1cc(I)c(N)cc1OC , please look it up.
stdout: 1.17

Continuing:
stdin: Lab note: need ID/g with Mus musculus for entry CCN(CC)CCNC(=O)c1cc(Br)c(N)c(I)c1OC , please look it up.
stdout: 1.91

stdin: Lab note: need ID/g with Mus musculus for entry CCN(CC)CCNC(=O)c1cc(I)c(NC(C)=O)cc1OC , please look it up.
stdout: 2.1

stdin: Lab note: need ID/g with Mus musculus for entry CCN(CC)CCNC(=O)c1cc(I)ccc1OC , please look it up.
stdout: 0.46
